Hey, just so you know, these numbers are from ChEMBL document CHEMBL1138847.

targetOrTestSystem: Human immunodeficiency virus type 1 protease (Human immunodeficiency virus 1) (UniProt Q72874)
experimentalEndpoint: log10 of k on (log10 of the value in M⁻¹ s⁻¹)
Hey, these are logged values: log10 of k on, M⁻¹ s⁻¹ being the unit before logging.

• CC(C)[C@H](C)C(=O)NC(=O)[C@H](O)[C@H](O)[C@@H](O)[C@@H](Oc1ccc(C2=C(O)C(=O)CCC2)cc1)C(=O)NC(=O)[C@@H](C)C(C)C = 4.47
• Cc1cccc(C)c1OCC(=O)N[C@@H](Cc1ccccc1)[C@@H](O)C[C@H](Cc1ccccc1)NC(=O)[C@H](C(C)C)N1CCCNC1=O = 6.82
• CC(C)[C@H](C)C(=O)NC(=O)[C@H](O)[C@H](O)[C@@H](O)[C@@H](Oc1ccc(-c2ccccn2)cc1)C(=O)NC(=O)[C@@H](C)C(C)C = 5.51
• CC(NO)c1cccc(CN2[C@H](COc3ccccc3)[C@H](O)[C@@H](O)[C@@H](COc3ccccc3)N(Cc3cccc(C(C)NO)c3)S2(=O)=O)c1 (stereo partly specified) = 5.71
• COC(=O)/C=C/c1ccc(O[C@@H](C(=O)NC(=O)[C@@H](C)C(C)C)[C@H](O)[C@@H](O)[C@@H](O)C(=O)NC(=O)[C@@H](C)C(C)C)cc1 = 5.31

Now for the compound whose log10 of k on we want.
Lookup: For `C[C@@H](Cc1ccc(O)cc1)C(=O)NC(=O)[C@H](O)[C@H](O)[C@@H](O)[C@@H](Oc1ccccc1)C(=O)NC(=O)[C@@H](C)Cc1ccc(O)cc1` , write its log10 of k on.
Found: 2.24
